system: rodent lifetime carcinogenesis bioassay, tumor incidence TD50; test: carcinogenic potency in animals, long-term in vivo studies, CPDB compilation (AID 1745844); conditions: rat; strain Wistar; females; in feed; site: liver; lesion: hemangioendothelioma; dosed 96 weeks; study length 96 weeks
observable: TD50

Record summary for CN(C)N=O : reported TD50 = 1.83 mg/kg/day

---

test system: rodent lifetime carcinogenesis bioassay, tumor incidence TD50; experiment: carcinogenic potency in animals, long-term in vivo studies, CPDB compilation (AID 1745844); conditions: rat; strain Sprague-Dawley Spartan; females; in feed; site: liver; lesion: hepatocellular carcinoma; dosed 103 weeks; study length 103 weeks
observable: TD50

The compound listed as Clc1cc2c(cc1Cl)Oc1cc(Cl)c(Cl)cc1O2 shows TD50 equal to 6.51e-05 mg/kg/day
